- System: PBMC from healthy, seropositive donors
- Format: cell-based, human
Each record's class is read off its Median SFC/10^6 PBMCs (IFN-g) using these ranges: band 1: < 200; band 2: ≥ 200 and < 300; band 3: ≥ 300

* MSAQVIQIGRQRFVGGLFWQ [BPSS1599_P1] | band 1
* SLRRAQAVKSYLVSKGVPAN [BPSL2522_P16] | band 3
* VLPGVDEELADRELGYDHDD [BPSS0530_P29] | band 2
* NRRVEIYLRAPQAAQ [BPSL0999_P21] | band 3
* REPKKQDICYATQNRQDAVK [BPSL0919_P21] | band 3
* AVNDNWVNGTGEWVWMNGTN [BPSL2522_P4] | band 3
* GGWNVVIGEPELERQGFQNF [BPSS1599_P15] | band 1
* ATFIVDPDNTIQHVSVNNLN [BPSL2096_P14] | band 3
* DRELGYDHDDLQTSFEPLAM [BPSS0530_P30] | band 3
* FTVVAAKPGFNNHEENGQSA [BPSL2096_P2] | band 3
* VGLQAGAQSKAIVFLFMTQD [BPSL1445_P12] | band 3
* DAAAKLERLLPEQGPRAPLA [BPSS1599_P36] | band 1
* RDKEAGVALRATFIVDPDNT [BPSL2096_P13] | band 3
* QPKRLDDLLPRRGGRPRTER [BPSS1599_P17] | band 1
* GDWVGSREEALERLHTDYAW [BPSS1599_P13] | band 1
* HAEQALELRGINKPVLSNDE [BPSS1531_P26] | band 2
* RMRLANLDAFDPLPPAMLYH [BPSS0530_P26] | band 2
* SALSATDQANATAMVAQINA [BPSL3319_P27] | band 2
* AGAILGAVVTGVALVAAAFV [BPSS1532_P44] | band 1
* LASRYRAVSTEVPDLAVGLD [BPSS0530_P13] | band 2
* VRPAFIEALGDAARATGLPG [BPSS1525_P15] | band 2
* RDLAVSKLSQLAGVQVVQSN [BPSL0280_P21] | band 3
* RFIPPLLDTRAHLVLRSLID [BPSS0530_P20] | band 2
* FAYWHHRAKVEAEEREAALE [BPSS1599_P22] | band 1
* KLVDLQLPGARLNALPNPPR [BPSS0530_P39] | band 2

---

- Test system: PBMC from healthy, seropositive donors
- Format: cell-based, human
Reported Median SFC/10^6 PBMCs (IFN-g) values are given for each entry in this list.
metric: Median SFC/10^6 PBMCs (IFN-g)

* PAGKQKLDELAAKIQGMNVE [BPSL2522_P12] | 308
* GAGIGALAGGGKGAAIGAGV [BPSL0999_P5] | 346
* PATANAKCDGALVAQAPAPA [BPSL2522_P7] | 265
* TEQPDGSLKLNVPSSVTFAT [BPSL0999_P10] | 382
* YLVSKGVPANKVYTEGKGKR [BPSL2522_P17] | 312
* AELAARPEYRELQPYARQQA [BPSS1525_P20] | 216
* LLVVEPGATLDTDGERATLD [BPSS1599_P31] | 151
* NLAQQAAALPASPTWRAYRL [BPSS1599_P38] | 125
* ELVGLLGRLSVLPGVDEELA [BPSS0530_P28] | 260
* LLLRQAIAEYRMRLANLDAF [BPSS0530_P25] | 244
* QPAPNWLGAFALPDGRWAYF [BPSS1599_P10] | 189
* AHLVLRSLIDELQSTLRVRL [BPSS0530_P21] | 258
* LFDFDKAVLKPAGKQKLDEL [BPSL2522_P11] | 408
* VPLTAPTANDTPLADDSVVR [BPSS1599_P33] | 147
* AWRREHKDLDKLNHYSFGDV [BPSL2096_P10] | 351
* ETPVLPLRFEDRGDQVHICI [BPSS0530_P33] | 233
* LSPRAALIAATAACVVLGGA [BPSS1599_P20] | 150
* FETVTEASFPGKWKIIYFYP [BPSL2096_P4] | 305
* LQTSFEPLAMMLRQALARVI [BPSS0530_P31] | 240
* APGTPRRLTIETGQLVTRLC [BPSS0530_P15] | 255
* RLGLRHARGVFQDGTAFSLP [BPSS0530_P7] | 211
* QIPYYAQSTYFEVESTDPFW [BPSS0530_P41] | 292

---

- tgt: HLA-DRB1*15:02 (Homo sapiens, UniProt P01903+P01911, V115G)
- Construct: Purified HLA-DR heterodimers derived from the relevant EBV B-lymphoblastoid cell lines; endogenous in cells
- Sequence (P01903 26-254, other chains not shown): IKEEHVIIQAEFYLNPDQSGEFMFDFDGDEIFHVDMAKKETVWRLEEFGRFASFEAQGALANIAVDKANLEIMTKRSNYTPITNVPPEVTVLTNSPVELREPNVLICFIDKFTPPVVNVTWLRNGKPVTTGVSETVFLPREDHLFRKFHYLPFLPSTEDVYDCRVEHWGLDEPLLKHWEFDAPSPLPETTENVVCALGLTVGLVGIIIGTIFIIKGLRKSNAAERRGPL
- Assay type: binding
- Set-up: reference not given here
- test_context: 24–72 h at 37°C
Consider the following sequences and their measured HLA binding, relative HLA binding affinity readings.
metric: HLA binding, relative HLA binding affinity

* PAGKQKLDELAAKIQGMNVE [BPSL2522_P12] | >3 333
* RGVAANRLSAQGMGASNPIA [BPSL0999_P18] | >3 333
* VVVATGYTDRIGSDKYNDRL [BPSL2522_P14] | 1 826

---

In this section we review reported Median SFC/10^6 PBMCs (IFN-g) values for a set of sequences.
- Tested on: PBMC from healthy, seropositive donors
- Format: cell-based, human
metric: Median SFC/10^6 PBMCs (IFN-g)

* AAKIQGMNVEVVVATGYTDR [BPSL2522_P13] | 291
* DRGDQVHICIVDKQWNLKKL [BPSS0530_P34] | 299
* SQVANDNAVAAQVAGNLRT [BPSS1531_P41] | 197
* IVEFAKLAKQFEERDAVLLG [BPSL2096_P7] | 304
* SQKITYQADTLFDFDKAVLK [BPSL2522_P10] | 297
* GRQVYEATLCAIFSEAKDRF [BPSS1525_P12] | 201
* KQTLAGSAMALRIVGDFPDL [BPSS0530_P43] | 299
* IRLRADTLMGAELAARPEYR [BPSS1525_P19] | 197
* ELCWRDAFWTPATANAKCDG [BPSL2522_P6] | 291
* CMDPATRAGNVRPAFIEALG [BPSS1525_P14] | 200

---

- Tested on: PBMC from healthy, seropositive donors
- Type: cell-based, human
Please note: 1 applies when % Responders is 90% or greater, and -1 applies otherwise.

- IGSDKYNDRLSLRRAQAVKS [BPSL2522_P15]: 1
- EAVELAKKLKFDLMVLRIDR [BPSS1599_P4]: -1
- LERLHTDYAWGGWNVVIGEP [BPSS1599_P14]: 1
- LLVVEPGATLDTDGERATLD [BPSS1599_P31]: -1
- APGTPRRLTIETGQLVTRLC [BPSS0530_P15]: 1
- IRLRADTLMGAELAARPEYR [BPSS1525_P19]: -1
- VGTQEVQKTTVPAQ [BPSL2522_P22]: 1
- VGLQAGAQSKAIVFLFMTQD [BPSL1445_P12]: 1
- HAEQALELRGINKPVLSNDE [BPSS1531_P26]: -1
- NRRVEIYLRAPQAAQ [BPSL0999_P21]: 1
- NSYTSQIAQLNEQIASASSQ [BPSL0280_P18]: 1
- DAARATGLPGADKQGVFTPS [BPSS1525_P16]: -1
- WWALRPVERRLSPRAALIAA [BPSS1599_P19]: 1
- YLVSKGVPANKVYTEGKGKR [BPSL2522_P17]: -1
- ELERQGFQNFQPKRLDDLLP [BPSS1599_P16]: -1
- QRFVGGLFWQSLSRRNELRA [BPSS1599_P2]: -1
- DPLPPAMLYHELVGLLGRLS [BPSS0530_P27]: -1
- GDWVGSREEALERLHTDYAW [BPSS1599_P13]: 1
- TAACVVLGGAFAYWHHRAKV [BPSS1599_P21]: 1
- RVEVEVVGTQEVQKTTVPAQ [BPSL2522_P23]: 1
- LAGVQVVQSNGNYSVFLSGG [BPSL0280_P22]: 1
- RLNALPNPPRQIPYYAQSTY [BPSS0530_P40]: -1
- SQVANDNAVAAQVAGNLRT [BPSS1531_P41]: -1
- SNHGWGFTLLDLDQDGLGLG [BPSS0530_P5]: 1
- FEVESTDPFWKQTLAGSAMA [BPSS0530_P42]: -1
- MLRQALARVIETPVLPLRFE [BPSS0530_P32]: 1
- EKLRQLLPQQTKLGAVEQIQ [BPSS0530_P37]: -1
- RRGGRPRTERWWALRPVERR [BPSS1599_P18]: 1
